biological target: T1, human SIRP-α v1 D1 domain (human, UniProt P78324 31-149); experiment: SPR, antibody immobilised on GLC chip
T1 construct: also called human v1; human α v1
T1 sequence (P78324 31-149 limits assumed): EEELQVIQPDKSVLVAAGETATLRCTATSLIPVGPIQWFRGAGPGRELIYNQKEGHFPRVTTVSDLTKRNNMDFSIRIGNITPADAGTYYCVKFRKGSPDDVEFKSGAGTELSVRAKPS
Overview of reported Kd across a group of binders:
// note: answer is a bare numeric in nM

binder	uom	Kd
antibody 135 variant wt/mut V34M (antibody, human IgG1, V domains shown, Human IgG1 with L234A/L235A/G237A/N297A; Labels are in the order VL/VH) VH: EVQLVESGGGVVQPGGSLRLSCAASGFSFSIYAMSWVRQAPGKGLEWVSTIGADDTYYADSVKGRFTISRDNSKNTLYLQMNSLRAEDTAVYYCAKDSTVGWSGDFFDYWGQGTLVTVSS VL: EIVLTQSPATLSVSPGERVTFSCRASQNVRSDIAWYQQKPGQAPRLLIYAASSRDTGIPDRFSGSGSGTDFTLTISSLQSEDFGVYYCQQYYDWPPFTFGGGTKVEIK	nM	0.15

Now look at this one.
Data point: antibody 135 variant wt/mut (antibody, human IgG1, V domains shown, Human IgG1 with L234A/L235A/G237A/N297A; Labels are in the order VL/VH) VH: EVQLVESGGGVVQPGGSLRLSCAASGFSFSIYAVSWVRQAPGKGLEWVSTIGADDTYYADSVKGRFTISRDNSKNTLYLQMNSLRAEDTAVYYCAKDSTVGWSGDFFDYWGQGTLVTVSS VL: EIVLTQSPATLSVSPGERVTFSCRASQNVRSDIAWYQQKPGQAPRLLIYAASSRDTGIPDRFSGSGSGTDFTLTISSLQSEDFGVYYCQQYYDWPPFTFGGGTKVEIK ; Kd = 0.184
